study target: human IL-15 (hIL-15+hIL-15Rα-His complex) (human (homo sapiens), UniProt P40933 49-162; Q13261 31-128)
Sequence (P40933 49-162 limits assumed, chain 1 of 2): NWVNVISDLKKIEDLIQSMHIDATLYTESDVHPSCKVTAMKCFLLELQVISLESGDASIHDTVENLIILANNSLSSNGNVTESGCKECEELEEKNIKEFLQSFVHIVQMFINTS
Sequence (Q13261 other isoform, or with tags, fused parts or gaps limits assumed, chain 2 of 2): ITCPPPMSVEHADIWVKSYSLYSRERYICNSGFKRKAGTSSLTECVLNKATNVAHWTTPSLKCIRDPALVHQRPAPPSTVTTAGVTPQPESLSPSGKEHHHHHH
experimental details: cell-based or functional assay
assay readout: IC50(nM), inhibition of IL-15-driven proliferation of NK92 cells (Cell Titer-Glo)
# number only, unit nM dropped from output

// solved cases for IC50(nM), inhibition of IL-15-driven proliferation of NK92 cells (Cell Titer-Glo) follow
1. anti-human IL-15 monoclonal antibody R2H2VH+R22F11VK (antibody, V domains shown, Mutant of R1A3; it was captured by anti-human IgG (Fc) in SPR and detected with anti-human IgG in ELISA, so a human Fc is implied; also called R2H2VH+R22FVK) VH: EVQLVQSGAEVKKPGESLKISCKVSGYFFTTYWIGWVRQMPGKGLEYMGIIYPGDSDTRYSPSFQGQVTISADKSISTAYLQWSSLKASDTAMYYCARGGHWNSFDTWGQGTLVTVSS VL: EIVLTQSPGTLSLSPGERATLSCRASQSVIGSYLAWYQQKPGQAPRLLIYSASKLASGIPDRFSGSGSGTDFTLTISRLEPEDFAVYYCQQHYSTPGTFGQGTKVEIK ... 0.119
2. anti-human IL-15 monoclonal antibody R1A3 (antibody, V domains shown, Found from a fully human Fab phage library) VH: EVQLVQSGAEVKKPGESLKISCKVSGYFFTTYWIGWVRQMPGKGLEYMGIIYPGDSDTRYSPSFQGQVTISADKSISTAYLQWSSLKASDTAMYYCARGGHWNAFDFWGQGTLVTVSS VL: EIVLTQSPGTLSLSPGERATLSCRASQSVSSSYLAWYQQKPGQAPRLLIYGASRRATGIPDRFSGSGSGTDFTLTISRLEPEDFAVYYCQQFDASQTFGQGTKLEISR ... 0.126
3. anti-human IL-15 monoclonal antibody R4G4VH+R22F11VK (antibody, V domains shown, Mutant of R1A3; it was captured by anti-human IgG (Fc) in SPR and detected with anti-human IgG in ELISA, so a human Fc is implied; also called R4G4VH+R22FVK) VH: EVQLVQSGAEVKKPGESLKISCKVSGYFFTTYWIGWVRQMPGKGLEYMGIIYPGDSDTRYSPSFQGQVTISADKSISTAYLQWSSLKASDTAMYYCARGGHWNAFDIWGQGTLVTVSS VL: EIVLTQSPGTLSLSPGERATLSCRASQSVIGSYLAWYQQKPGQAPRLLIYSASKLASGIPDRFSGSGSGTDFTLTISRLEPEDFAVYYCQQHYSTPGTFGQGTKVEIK ... 0.109

// moving on: another record for IC50(nM), inhibition of IL-15-driven proliferation of NK92 cells (Cell Titer-Glo)
## Task Return value of IC50(nM), inhibition of IL-15-driven proliferation of NK92 cells (Cell Titer-Glo) for input anti-human IL-15 monoclonal antibody R26H10 (antibody, V domains shown, Humanized mutant of R6E11 with a fully human light chain; captured by anti-human IgG (Fc) in SPR and detected with anti-human IgG in ELISA) VH: QVTLKESGPVLVKPTETLTLTCTVSGFSLTTYAVHWIRQPPGKALEWLGVIWGAGSTDYNPSFMSRLTISKDTSKSQVVLTMTNMDPVDTATYYCAKNAAYYVMDYWGQGTTVTVSS VL: EIVLTQSPGTLSLSPGERATLSCRASQSVIYSYLAWYQQKPGQAPRLLIYAASKLASGIPDRFSGSGSGTDFTLTISRLEPEDFAVYYCQQRASYPLTFGQGTKVEIK , no commentary.
## Result 0.133
